Data origin: patent US12110276B2

Target: TEAD3 (Homo sapiens (Human))
Sequence (Q99594 whole entry, species assumed): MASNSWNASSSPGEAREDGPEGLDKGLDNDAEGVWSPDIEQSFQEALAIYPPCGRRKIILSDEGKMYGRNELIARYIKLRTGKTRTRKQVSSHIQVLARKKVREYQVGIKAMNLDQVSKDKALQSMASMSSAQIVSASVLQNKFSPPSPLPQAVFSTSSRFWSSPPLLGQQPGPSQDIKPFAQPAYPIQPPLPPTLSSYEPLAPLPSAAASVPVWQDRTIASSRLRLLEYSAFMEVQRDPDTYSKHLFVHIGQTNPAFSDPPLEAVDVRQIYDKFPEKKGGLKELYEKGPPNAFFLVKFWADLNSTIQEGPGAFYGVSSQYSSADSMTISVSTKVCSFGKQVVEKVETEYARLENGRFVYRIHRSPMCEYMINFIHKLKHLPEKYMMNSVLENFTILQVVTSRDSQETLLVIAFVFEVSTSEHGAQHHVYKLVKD
Assay: TR-FRET lipid pocket probe competition assay (Lipid HTRF), TEAD3
Assay type: binding
Conditions: 4 hours pre-incubation; read-out: Lipid HTRF TEAD3 IC50
endpoint.name: IC50 (nM)

Previously resolved entries follow.
{"molecule": "C=CC(=O)NCc1nn(-c2ccc(OC(F)(F)F)cc2)c2nccc(N3CC(O)(CO)C3)c12 [Compound 124]", "measurement.target": "TEAD3 (Homo sapiens (Human))", "IC50 / nM": 930}
{"molecule": "C=CC(=O)N(C)Cc1nn(-c2ccc(OC(F)(F)F)cc2)c2ccccc12 [Compound 18]", "measurement.target": "TEAD3 (Homo sapiens (Human))", "IC50 / nM": 100}
{"molecule": "C=CC(=O)NCc1nn(-c2ccc(OC(F)(F)F)cc2)c2nccc(-c3cnn(C(C)C)c3)c12 [Compound 170]", "measurement.target": "TEAD3 (Homo sapiens (Human))", "IC50 / nM": 26600}

P = C=C(F)C(=O)N1CC(c2nn(-c3ccc(OC(F)(F)F)cc3)c3nccc(-c4cnn(C(C)C)c4)c23)C1 [Compound 178]
Q = C=C(F)C(=O)N1CC(c2nn(-c3ccc(OC(F)(F)F)cc3)c3nccc(N4CC(F)(CO)C4)c23)C1 [Compound 39]
Which of these two has the smaller recorded IC50: P or Q ? Give the label of your selection.
Q
